Tested on: ragweed (common ragweed, Ambrosia elatior)
Test: Test A postemergence
Format: in vivo
Settings: 125 g ai/ha, postemergence; visual rating after approx. 10 d, 0 to 100 scale (0 no effect, 100 complete control)
readout-label: Plant response rating, Ragweed
Output spec: single numeric token, no unit.

Consider the following illustrative entries.
Query :: // Input: Cc1ccc(C2CN(C)C(=O)C2C(=O)Nc2ccccc2S(C)(=O)=O)cc1 (stereo not shown) . Output its Plant response rating, Ragweed only.
Result :: 30

Query :: // Input: CC(C)Oc1cccc(C2CN(C)C(=O)C2C(=O)Nc2cccc(F)c2F)c1 (stereo not shown) . Output its Plant response rating, Ragweed only.
Result :: 0

Query :: // Input: O=C1NCC(c2cc(C(F)(F)F)cc(C(F)(F)F)c2)C1C(=O)Nc1ccccc1F (stereo not shown) . Output its Plant response rating, Ragweed only.
Result :: 0

Further cases:
Query :: // Input: COc1c(F)ccc(NC(=O)C2C(=O)NCC2c2cccc(OC(F)(F)C(F)F)c2)c1F (racemic) . Output its Plant response rating, Ragweed only.
Result :: 0

====

Items are presented alongside their recorded pest or weed control at 125 g/ha.
Test system: giant foxtail (Setaria faberii)
Assay: Test A preemergence
Type: in vivo
Settings: Setaria faberi, pre-emergence, 240 h, 125 g ai/ha, Preemergence, visual injury rating after approximately 10 d; read-out: Foxtail, Giant plant response rating (0 to 100 scale, 0 is no effect, 100 is complete control)
Just the number please, in %, no unit attached.

Consider the following illustrative entries.
Query :: // Input: CN1C[C@H](c2csc(C(F)(F)F)c2)[C@@H](C(=O)Nc2cccc(F)c2F)C1=O [Compound 959] . Output its pest or weed control at 125 g/ha only.
Result :: 90

Query :: // Input: Cc1cc([C@H]2CNC(=O)[C@@H]2C(=O)Nc2ccccc2Cl)ccc1C(F)(F)F [Compound 1044] . Output its pest or weed control at 125 g/ha only.
Result :: 70

Query :: // Input: O=C1NC[C@H](c2ccc3c(c2)CCC3)[C@H]1C(=O)Nc1cccc(F)c1F [Compound 1046] . Output its pest or weed control at 125 g/ha only.
Result :: 80

Further cases:
Query :: // Input: CC(C)Oc1ccc([C@H]2CN(C)C(=O)[C@@H]2C(=O)Nc2ccc(F)cc2F)cc1 [Compound 954] . Output its pest or weed control at 125 g/ha only.
Result :: 90

====

System: ducksalad (Heteranthera limosa)
Assay: Test B flooded paddy test
Type: in vivo
Conditions: Heteranthera limosa, 250 g ai/ha, Flood; 0 to 100 scale where 0 is no effect and 100 is complete control; read-out: Ducksalad plant response rating
Items are presented alongside their recorded pest or weed control at 250 g/ha.
Just the number please, in %, no unit attached.

Consider the following illustrative entries.
Query :: // Input: Cc1cc(F)cc([C@H]2CNC(=O)[C@@H]2C(=O)Nc2cccc(F)c2C)c1 [Compound 1308] . Output its pest or weed control at 250 g/ha only.
Result :: 100

Query :: // Input: O=C1NC[C@H](c2ccc(C(F)(F)F)cc2)C1C(=O)Nc1c(F)cccc1CO (some centres unmarked) [Compound 1243] . Output its pest or weed control at 250 g/ha only.
Result :: 0

Query :: // Input: CN1C[C@H](c2cc(F)cc(C(F)(F)F)c2)[C@@H](C(=O)Nc2cccnc2F)C1=O [Compound 1176] . Output its pest or weed control at 250 g/ha only.
Result :: 95

Query :: // Input: CN1C[C@H](c2ccc(C(F)(F)F)c(O)c2)[C@@H](C(=O)Nc2cccc(F)c2F)C1=O [Compound 1173] . Output its pest or weed control at 250 g/ha only.
Result :: 90

Query :: // Input: CN1C[C@H](c2cccc(C(F)(F)F)c2)[C@@H](C(=O)Nc2ccc(F)cc2C(F)(F)F)C1=O [Compound 1250] . Output its pest or weed control at 250 g/ha only.
Result :: 100

Query :: // Input: CSc1ccccc1NC(=O)[C@H]1C(=O)N(C)C[C@@H]1c1ccc(C#N)cc1 [Compound 1230] . Output its pest or weed control at 250 g/ha only.
Result :: 70

Query :: // Input: COc1ccc([C@H]2CN(C)C(=O)[C@@H]2C(=O)Nc2ccccc2SC)c(OC)c1 [Compound 1216] . Output its pest or weed control at 250 g/ha only.
Result :: 0

Now, please, on to the next molecule.
Query :: // Input: O=C(Nc1ccc(F)c(F)c1F)[C@H]1C(=O)N(O)CC[C@@H]1c1ccc(C(F)(F)F)cc1 [Compound 1108] . Output its pest or weed control at 250 g/ha only.
Result :: 85
